Assayed system: plasmepsin II from Plasmodium falciparum (Plm II) (Plasmodium falciparum)
Construct: made in house; host or cells: Escherichia coli
Sequence (P46925 125-453): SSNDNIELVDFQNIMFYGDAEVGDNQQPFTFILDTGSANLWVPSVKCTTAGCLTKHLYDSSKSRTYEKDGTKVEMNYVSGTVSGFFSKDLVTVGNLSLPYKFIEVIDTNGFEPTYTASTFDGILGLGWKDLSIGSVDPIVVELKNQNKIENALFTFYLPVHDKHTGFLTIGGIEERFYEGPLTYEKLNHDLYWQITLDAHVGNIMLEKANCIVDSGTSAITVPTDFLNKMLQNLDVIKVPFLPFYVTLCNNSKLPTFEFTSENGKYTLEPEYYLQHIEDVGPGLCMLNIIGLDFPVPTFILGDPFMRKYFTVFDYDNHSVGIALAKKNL
Test name: Plasmepsin II inhibition assay, hydrolysis of chromogenic substrate
Type: biochemical
Measurement parameters: 25° C., 10 mM sodium formate, 2% DMSO, pH 4.0; fit to competitive inhibition; read-out: Ki Plm II
Listed here: items and their measured log10 of Ki.
Assay metric: log10 of Ki (log10 of the value in nM)

>>> experimental_result("CC(C)[C@H](NC(=O)c1cccc2ccccc12)C(=O)N[C@@H](Cc1ccccc1)[C@H](O)C(=O)N1CSC(C)(C)[C@H]1C(=O)NC(C)(C)C")
3.03
>>> experimental_result("COc1ccc(CCNC(=O)[C@H]2N(C(=O)[C@@H](O)[C@H](Cc3ccccc3)NC(=O)COc3c(C)cccc3C)CSC2(C)C)cc1")
1.88
>>> experimental_result("Cc1c(O)cccc1C(=O)N[C@@H](Cc1ccccc1)[C@H](O)C(=O)N1CSC(C)(C)[C@H]1C(=O)NC(C)(C)C")
2.77
>>> experimental_result("Cc1cccc(C)c1OCC(=O)N[C@@H](Cc1ccccc1)[C@H](O)C(=O)N1CSC(C)(C)[C@H]1C(=O)NCc1cccc(O)c1")
2.00
>>> experimental_result("CC(C)(C)NC(=O)C1N(C(=O)C(O)C(Cc2ccccc2)NC(=O)C(CCC(N)=O)NC(=O)COc2cccc3cnccc23)CSC1(C)C (stereo not shown)")
3.07
>>> experimental_result("CC(C)[C@H](NC(=O)c1ccccn1)C(=O)N[C@@H](Cc1ccccc1)[C@H](O)C(=O)N1CSC(C)(C)[C@H]1C(=O)NC(C)(C)C")
3.06
>>> experimental_result("CC(C(=O)O)C(C)C(=O)N[C@@H](Cc1ccccc1)[C@H](O)C(=O)N1CSC[C@H]1C(=O)NC(C)(C)C (stereo partly shown)")
4.49
>>> experimental_result("Cc1cccc(C)c1OCC(=O)N[C@@H](Cc1ccccc1)[C@H](O)C(=O)N1CSC(C)(C)[C@H]1C(=O)Nc1cccc2ccccc12")
1.92
>>> experimental_result("COc1ccc(CNC(=O)[C@H]2N(C(=O)[C@@H](O)[C@H](Cc3ccccc3)NC(=O)COc3c(C)cccc3C)CSC2(C)C)cc1")
2.23
>>> experimental_result("CSCC(NC(=O)COc1cccc2cnccc12)C(=O)NC(Cc1ccccc1)C(O)C(=O)N1CSC(C)(C)C1C(=O)NC(C)(C)C (stereo not shown)")
1.56
